molecular target: HIPK2 (human); experiment: radiometric filter-binding kinase assay, Kinase HotSpot; conditions: compound 0.5 µM; ATP 10 µM
readoutKind: residual activity (%)
Expressed in %, but write only the number.

Field: example entries. Status: answers known.
                                 itemsmiles         system  measuredvalue
0     COc1ccc2c(c1)/C(=C/c1cnc[nH]1)C(O)=N2  HIPK2 (human)            100
1  CN(C)S(=O)(=O)c1ccc2c(c1)/C(=C/c1cc3c([nH]1)CCCC3)C(=O)N2  HIPK2 (human)           98.2
2       CCCCc1c(-c2ccc(OC)cc2)[nH]c2nccnc12  HIPK2 (human)            109
3  COc1ccc2c(c1)c(C1=C(c3c[nH]c4ccccc34)C(=O)NC1=O)cn2CCCN(C)C  HIPK2 (human)           96.3
4  CS(=O)(=O)CCNCc1ccc(-c2ccc3ncnc(Nc4ccc(OCc5cccc(F)c5)c(Cl)c4)c3c2)o1  HIPK2 (human)            104

Tell us which residual activity value is on record for COc1cc(Nc2c(C#N)cnc3cc(OCCCN4CCN(C)CC4)c(OC)cc23)c(Cl)cc1Cl 89

Read the entry O=C1NC(=O)c2c1c1c3ccccc3[nH]c1n1cncc21 and write its reported residual activity. 94.4

----------
Below, each entry is listed alongside its reported residual activity.
biological target: PDGFRA (human) (UniProt P16234); assay: radiometric filter-binding kinase assay, Kinase HotSpot; settings: compound 0.5 µM; ATP 10 µM
Sequence (P16234 whole entry, looked up): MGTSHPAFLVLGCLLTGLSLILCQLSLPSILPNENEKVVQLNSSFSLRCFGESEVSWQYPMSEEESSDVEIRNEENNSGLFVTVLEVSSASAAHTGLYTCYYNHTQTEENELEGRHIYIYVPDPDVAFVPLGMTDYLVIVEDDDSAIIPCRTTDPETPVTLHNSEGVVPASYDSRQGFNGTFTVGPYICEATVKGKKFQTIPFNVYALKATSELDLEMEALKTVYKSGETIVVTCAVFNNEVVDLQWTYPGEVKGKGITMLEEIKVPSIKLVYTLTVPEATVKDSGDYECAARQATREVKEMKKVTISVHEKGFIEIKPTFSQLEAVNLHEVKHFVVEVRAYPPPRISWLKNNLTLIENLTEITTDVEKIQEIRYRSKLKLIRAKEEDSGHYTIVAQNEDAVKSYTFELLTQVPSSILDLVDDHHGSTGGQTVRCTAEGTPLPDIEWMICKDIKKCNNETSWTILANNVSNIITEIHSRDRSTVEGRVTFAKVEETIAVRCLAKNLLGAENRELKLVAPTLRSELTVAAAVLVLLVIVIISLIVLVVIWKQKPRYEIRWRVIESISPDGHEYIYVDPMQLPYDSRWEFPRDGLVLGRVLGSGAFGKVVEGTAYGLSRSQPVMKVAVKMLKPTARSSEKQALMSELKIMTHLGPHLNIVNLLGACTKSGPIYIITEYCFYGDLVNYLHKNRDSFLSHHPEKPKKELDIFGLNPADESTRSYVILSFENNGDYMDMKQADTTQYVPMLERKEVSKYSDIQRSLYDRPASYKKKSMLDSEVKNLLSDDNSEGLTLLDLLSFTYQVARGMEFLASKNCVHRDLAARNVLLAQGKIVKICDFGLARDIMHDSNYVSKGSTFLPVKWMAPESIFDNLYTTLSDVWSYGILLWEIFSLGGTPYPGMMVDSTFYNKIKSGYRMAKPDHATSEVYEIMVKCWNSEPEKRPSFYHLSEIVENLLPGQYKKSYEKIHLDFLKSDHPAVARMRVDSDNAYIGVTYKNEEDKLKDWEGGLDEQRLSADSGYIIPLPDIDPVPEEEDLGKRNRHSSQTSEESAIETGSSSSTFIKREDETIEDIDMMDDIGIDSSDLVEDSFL
Reply with just the number (in %).

In the examples that follow, each entry is paired with its recorded residual activity.
In [3]: df
Out[3]:
                                 itemsmiles                           system  measuredvalue
0  C[C@@H]1CCN(C(=O)CC#N)C[C@@H]1N(C)c1ncnc2[nH]ccc12  PDGFRA (human) (UniProt P16234)            104
1  O=C(c1cc2cc(O)ccc2[nH]1)c1cc2cc(O)ccc2[nH]1  PDGFRA (human) (UniProt P16234)           65.3
2               c1ccc2c(-c3ccncc3)c[nH]c2c1  PDGFRA (human) (UniProt P16234)             95
3    O=C1NC(=O)c2c1c1c3ccccc3[nH]c1n1cncc21  PDGFRA (human) (UniProt P16234)           84.4
4  COc1ccc(C(=O)Nc2sc3c(c2C(N)=O)CCCC3)cc1OC  PDGFRA (human) (UniProt P16234)           96.4
5  COc1cc(Nc2c(C#N)cnc3cc(OCCCN4CCN(C)CC4)c(OC)cc23)c(Cl)cc1Cl  PDGFRA (human) (UniProt P16234)           86.9

For CS(=O)(=O)CCNCc1ccc(-c2ccc3ncnc(Nc4ccc(OCc5cccc(F)c5)c(Cl)c4)c3c2)o1 , write its residual activity. 108

Assign residual activity to the following record: Cc1cccc(-c2nc(C(C)(C)C)[nH]c2-c2ccc3c(c2)OCO3)n1 94.1

State its residual activity for this compound: Cc1cncc2cccc(S(=O)(=O)N3CCCN(C(=O)CN)C[C@H]3C)c12 93.5

Given the compound COc1ccc2c(c1)/C(=C/c1cnc[nH]1)C(O)=N2 , write its reported residual activity. 94.9

Give me measured residual activity, please, for this compound: CO[C@@H]1[C@H](N(C)C(=O)c2ccccc2)C[C@H]2O[C@]1(C)n1c3ccccc3c3c4c(c5c6ccccc6n2c5c31)C(=O)NC4 30

Look up residual activity of COc1ccc2c(c1)c(C1=C(c3c[nH]c4ccccc34)C(=O)NC1=O)cn2CCCN(C)C and report it. 85.2

Look up and report measured residual activity for this entry: NC(=O)c1cccc(-c2cc(Nc3ccc(OC(F)(F)F)cc3)ncn2)c1 91.8

Tell me measured residual activity for CN(C)c1ccc(/C=C2\C(=O)Nc3ccccc32)cc1 please. 79.9
